Biological target: Procathepsin L (Homo sapiens)
Sequence (P07711 whole entry): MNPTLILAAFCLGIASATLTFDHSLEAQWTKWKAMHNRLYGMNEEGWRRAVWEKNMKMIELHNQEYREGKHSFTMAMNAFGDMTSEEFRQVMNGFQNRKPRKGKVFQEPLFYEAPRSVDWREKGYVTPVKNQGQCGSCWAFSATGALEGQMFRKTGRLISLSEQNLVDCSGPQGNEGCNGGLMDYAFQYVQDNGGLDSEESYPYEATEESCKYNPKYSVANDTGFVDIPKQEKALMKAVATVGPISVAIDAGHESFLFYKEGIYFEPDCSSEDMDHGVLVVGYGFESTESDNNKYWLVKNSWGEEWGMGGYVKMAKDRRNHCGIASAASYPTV
Test: Enzyme Inhibition Assay and Whole Cell Enzyme Occupancy Assay
Conditions: pH 5.5; 22 °C
Observable: pEC50
Quick note: pEC50 means taking -log10 of the concentration in moles per liter.

Sample answers from the record:
INSERT INTO measurements (smiles_input, experimental_system, observable, recorded_measurement) VALUES
  ('CC(C)C[C@@H](C(=O)NCC#N)c1cccc(-c2ccc(N3CCNCC3)cc2)c1', 'Procathepsin L (Homo sapiens)', 'pEC50', 6.49),
  ('N#CCNC(=O)[C@H](CC1CCCCC1)NC(=O)c1ccccc1', 'Procathepsin L (Homo sapiens)', 'pEC50', 6.64),
  ('CCCN1CCN(c2ccc(C(=O)NC3(C(=O)NCC#N)CCCCC3)cc2)CC1', 'Procathepsin L (Homo sapiens)', 'pEC50', 7.32);

Turning now to a further molecule:
Given `CN1CCN(c2nc(-c3ccc(C(=O)NC4(C(=O)NCC#N)CCCCC4)cc3)cs2)CC1` , state its recorded pEC50.
6.47

---

Target: Cathepsin K (Oryctolagus cuniculus, UniProt P43236)
Sequence (P43236 whole entry): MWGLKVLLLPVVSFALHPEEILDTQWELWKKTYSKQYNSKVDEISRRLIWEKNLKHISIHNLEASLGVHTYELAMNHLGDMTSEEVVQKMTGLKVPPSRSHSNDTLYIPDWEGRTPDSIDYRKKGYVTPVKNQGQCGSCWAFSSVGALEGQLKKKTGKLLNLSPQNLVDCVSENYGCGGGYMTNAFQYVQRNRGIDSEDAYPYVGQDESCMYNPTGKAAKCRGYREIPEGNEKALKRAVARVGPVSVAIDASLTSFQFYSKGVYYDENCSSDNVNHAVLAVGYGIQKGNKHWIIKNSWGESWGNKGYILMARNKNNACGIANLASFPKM
Test: Enzyme Inhibition Assay and Bone Resorption Assay
Settings: pH 5.5; 22 °C
The following compounds are shown together with reported pEC50 values.
Quick note: pEC50 means taking -log10 of the concentration in moles per liter.

Sample answers from the record:
INSERT INTO assay_data (smiles_input, recorded_measurement) VALUES
  ('CC(C)C[C@@H](C(=O)NCC#N)c1cccc(-c2ccc(N3CCNCC3)cc2)c1', 6.83),
  ('CN1CCN(c2nc(-c3ccc(C(=O)NC4(C(=O)NCC#N)CCCCC4)cc3)cs2)CC1', 8.30);

Given `N#CCNC(=O)C1(NC(=O)c2ccc(N3CCOCC3)cc2)CCCCC1` , state its recorded pEC50.
6.24

Also `N#CCNC(=O)C1(NC(=O)c2ccc(-c3csc(N4CCOCC4)n3)cc2)CCCCC1` , if possible.
7.39

---

Target: Cathepsin S (Homo sapiens, UniProt P25774)
Sequence (P25774 whole entry): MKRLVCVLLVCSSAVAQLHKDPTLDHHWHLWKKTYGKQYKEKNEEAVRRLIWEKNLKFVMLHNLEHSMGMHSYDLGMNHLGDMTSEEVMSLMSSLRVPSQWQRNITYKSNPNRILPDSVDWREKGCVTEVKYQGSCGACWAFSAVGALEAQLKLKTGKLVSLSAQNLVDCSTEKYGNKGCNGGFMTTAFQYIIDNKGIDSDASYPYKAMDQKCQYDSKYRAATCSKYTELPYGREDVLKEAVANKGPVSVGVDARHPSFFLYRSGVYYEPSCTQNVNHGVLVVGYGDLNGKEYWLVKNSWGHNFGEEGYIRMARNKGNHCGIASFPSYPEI
Assay: Enzyme Inhibition Assay and Whole Cell Enzyme Occupancy Assay
Settings: pH 6.5; 22 °C
The following molecules are shown together with reported pEC50 values.
Quick note: pEC50 means taking -log10 of the concentration in moles per liter.

Sample answers from the record:
INSERT INTO results (smiles_input, recorded_measurement) VALUES
  ('CC(C)C[C@@H](C(=O)NCC#N)c1cccc(-c2ccc(N3CCNCC3)cc2)c1', 5.87),
  ('CN1CCN(c2nc(-c3ccc(C(=O)NC4(C(=O)NCC#N)CCCCC4)cc3)cs2)CC1', 6.10),
  ('N#CCNC(=O)[C@H](CC1CCCCC1)NC(=O)c1ccccc1', 8.00),
  ('N#CCNC(=O)C1(NC(=O)c2ccc(N3CCOCC3)cc2)CCCCC1', 5.32);

Turning now to a further molecule:
Given `CCCN1CCN(c2ccc(C(=O)NC3(C(=O)NCC#N)CCCCC3)cc2)CC1` , state its recorded pEC50.
5.54

---

The following molecules are shown together with reported pEC50 values.
Target: Cathepsin S (Mouse, UniProt O70370)
Sequence (O70370 whole entry): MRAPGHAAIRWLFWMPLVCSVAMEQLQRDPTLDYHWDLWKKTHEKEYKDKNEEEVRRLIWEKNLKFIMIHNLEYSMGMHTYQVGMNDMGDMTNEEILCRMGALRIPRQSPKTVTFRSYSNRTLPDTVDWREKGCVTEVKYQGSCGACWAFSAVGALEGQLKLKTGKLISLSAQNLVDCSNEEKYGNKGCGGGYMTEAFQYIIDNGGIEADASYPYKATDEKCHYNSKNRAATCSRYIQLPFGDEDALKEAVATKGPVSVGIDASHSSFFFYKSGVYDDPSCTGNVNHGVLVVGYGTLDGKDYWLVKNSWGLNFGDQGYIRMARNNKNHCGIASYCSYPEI
Assay: Enzyme Inhibition Assay
Quick note: pEC50 means taking -log10 of the concentration in moles per liter.

Sample answers from the record:
INSERT INTO assay_data (smiles_input, recorded_measurement) VALUES
  ('CC(C)C[C@@H](C(=O)NCC#N)c1cccc(-c2ccc(N3CCNCC3)cc2)c1', 6.13),
  ('N#CCNC(=O)[C@H](CC1CCCCC1)NC(=O)c1ccccc1', 7.40),
  ('CN1CCN(c2nc(-c3ccc(C(=O)NC4(C(=O)NCC#N)CCCCC4)cc3)cs2)CC1', 6.50),
  ('CCCN1CCN(c2ccc(C(=O)NC3(C(=O)NCC#N)CCCCC3)cc2)CC1', 6.32);

Given `N#CCNC(=O)C1(NC(=O)c2ccc(-c3csc(N4CCOCC4)n3)cc2)CCCCC1` , state its recorded pEC50.
5.17

Also `N#CCNC(=O)C1(NC(=O)c2ccc(N3CCOCC3)cc2)CCCCC1` , if possible.
5.07
